The reported measurements were obtained from patent US10478425B2.

Target: Human AMPK α2β2γ1 (Homo sapiens, UniProt O43741+P54646)
Construct: The full length cDNAs of human AMPK β2 (NM_005399.3) and human AMPK α2 (NM_006252.3); The full length cDNAs of human AMPK β2 (NM_005399.3); the full length cDNA of human AMPK γ1 (NM_002733.3) had been inserted into pET28b(+); 6×His (N); made in house; host or cells: Escherichia coli BL21 CodonPlus (DE3)-RIL
Sequence (P54646 whole entry): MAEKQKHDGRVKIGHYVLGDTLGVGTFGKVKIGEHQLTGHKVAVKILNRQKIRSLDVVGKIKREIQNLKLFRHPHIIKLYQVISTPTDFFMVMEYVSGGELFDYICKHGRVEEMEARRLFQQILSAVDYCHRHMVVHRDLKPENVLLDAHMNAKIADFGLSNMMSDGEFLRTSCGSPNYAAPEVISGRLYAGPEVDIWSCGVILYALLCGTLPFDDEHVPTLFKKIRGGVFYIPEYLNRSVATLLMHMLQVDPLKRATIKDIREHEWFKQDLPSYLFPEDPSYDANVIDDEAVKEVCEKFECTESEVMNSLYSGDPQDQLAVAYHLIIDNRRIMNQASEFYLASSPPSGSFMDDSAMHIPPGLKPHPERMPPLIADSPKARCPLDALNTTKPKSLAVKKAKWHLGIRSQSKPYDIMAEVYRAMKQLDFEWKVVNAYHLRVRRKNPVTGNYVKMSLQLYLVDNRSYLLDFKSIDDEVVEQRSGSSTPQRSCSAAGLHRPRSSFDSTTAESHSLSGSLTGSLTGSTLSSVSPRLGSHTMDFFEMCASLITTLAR
Sequence (O43741 whole entry): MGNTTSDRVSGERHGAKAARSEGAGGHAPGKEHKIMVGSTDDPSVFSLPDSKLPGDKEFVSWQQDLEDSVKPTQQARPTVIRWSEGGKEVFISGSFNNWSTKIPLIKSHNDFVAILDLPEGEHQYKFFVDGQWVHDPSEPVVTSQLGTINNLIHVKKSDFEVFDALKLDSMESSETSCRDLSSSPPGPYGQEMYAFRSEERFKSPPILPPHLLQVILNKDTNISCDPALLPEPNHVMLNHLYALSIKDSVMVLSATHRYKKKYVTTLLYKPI
Sequence (P54619 whole entry partner): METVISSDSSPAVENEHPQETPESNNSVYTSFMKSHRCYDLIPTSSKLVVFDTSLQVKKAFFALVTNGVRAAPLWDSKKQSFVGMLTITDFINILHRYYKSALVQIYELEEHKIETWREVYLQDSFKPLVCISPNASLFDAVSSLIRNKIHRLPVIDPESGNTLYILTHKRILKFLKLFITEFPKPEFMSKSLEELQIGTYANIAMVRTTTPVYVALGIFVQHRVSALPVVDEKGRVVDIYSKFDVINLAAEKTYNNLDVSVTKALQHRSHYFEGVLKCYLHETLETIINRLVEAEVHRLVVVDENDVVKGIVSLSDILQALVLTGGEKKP
Assay: Test Example 2: activation of phosphorylated human AMPK α2β2γ1 (mobility-shift kinase assay, FL-Peptide 7)
Type: biochemical
Details: compound concentration showing 150% relative to the control (100%); human AMPK α2β2γ1 phosphorylated with CaMKK2
MEASURED ENDPOINT: EC150 (nM)
A number alone suffices; assume nM.

Briefly, EC150 measured for "CC(C)(O)COc1ccc(-c2ccc(-c3nc4cc(O[C@@H]5CO[C@H]6[C@@H]5OC[C@H]6O)[nH]c4cc3F)cc2)cc1" : 3

Briefly, EC150 measured for "CS(C)(=O)=Nc1ccc(-c2ccc(-c3nc4cc(O[C@@H]5CO[C@H](CO)C5)[nH]c4cc3F)cc2)cc1" : 0.96

Briefly, EC150 measured for "CO[C@@H]1CO[C@H]2[C@@H]1OC[C@H]2Oc1cc2nc(-c3ccc(-c4ccc(N=S(C)(C)=O)cc4)cc3)c(F)cc2[nH]1" : 15
